- Assay System: T1, human GIP receptor (human, UniProt P48546 22-466)
- T1 sequence (looked up): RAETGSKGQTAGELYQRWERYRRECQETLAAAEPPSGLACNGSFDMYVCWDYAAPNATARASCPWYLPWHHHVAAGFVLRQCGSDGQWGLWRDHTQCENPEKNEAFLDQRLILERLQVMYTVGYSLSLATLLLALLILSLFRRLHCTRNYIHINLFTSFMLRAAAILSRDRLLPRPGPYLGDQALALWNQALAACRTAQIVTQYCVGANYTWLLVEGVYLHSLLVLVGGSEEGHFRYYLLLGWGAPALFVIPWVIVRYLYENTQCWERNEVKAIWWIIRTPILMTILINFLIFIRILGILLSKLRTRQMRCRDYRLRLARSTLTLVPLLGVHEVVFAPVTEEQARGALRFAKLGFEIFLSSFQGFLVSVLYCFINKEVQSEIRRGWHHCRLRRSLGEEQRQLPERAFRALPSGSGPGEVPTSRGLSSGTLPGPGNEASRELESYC
- Test Protocol: cell-based or functional assay
Starred links: 1 amine or outer side, 2 acyl side, 3 side chain; linkers in the order of their positions; H or OH if unused. Non-standard residues stand in square brackets, D forms with d. Groups on a side chain read outwards from the residue. No end group written: not given here. *: point of attachment. C20 diacid = O=C(O)CCCCCCCCCCCCCCCCCCC(=O)*; γGlu = O=C(O)[C@H](CCC(=O)[*:2])N[*:1]; εLys = N[C@@H](CCCCN[*:1])C(=O)[*:2]; Aib = CC(C)(N)C(=O)O
Parameter: EC50, CreLuc assay, 100% hP (nM)
Only the number, expressed in nM, is required.

As a guide, the following entries are already answered.
# Binder, Parameter, Value Observed
rows = [
    ("Y[Aib]EGTFTSDYSI[Aib]LEEQAQ[Aib]AFVQWLIK([εLys-γGlu-γGlu-γGlu-γGlu-γGlu-C20 diacid])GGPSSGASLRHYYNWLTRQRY-NH2 (also: TFA salt) [Compound 34]", "EC50, CreLuc assay, 100% hP", 1.61),
    ("YXEGTFTSDYSIXLEKQAQXAFVEWLIKGGPSSGASLRHYXNRXTRQRY (Aib at 2, 13, 20, 41, 44; K28 side chain: C20DA-gGlu-gGlu-gGlu-gGlu-gGlu-gGlu-eLys; C-terminal NH2) [Compound 18]", "EC50, CreLuc assay, 100% hP", 1.98),
    ("Y[Aib]EGTFTSDYSI[Aib]LEEEAQ[Aib]AFVQWLIK([εLys-εLys-γGlu-γGlu-γGlu-γGlu-γGlu-C20 diacid])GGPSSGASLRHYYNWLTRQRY-NH2 (also: TFA salt) [Compound 7]", "EC50, CreLuc assay, 100% hP", 0.63),
    ("YXEGTFTSDYSIXLEKQAQXAFVQWLIKGGPSYYVSLRHYYNWLTRQRY (Aib at 2, 13, 20; K28 side chain: C20DA-gGlu-gGlu-gGlu-gGlu-gGlu-gGlu-eLys; C-terminal NH2) [Compound 19]", "EC50, CreLuc assay, 100% hP", 6.5),
]

What value of measured EC50, CreLuc assay, 100% hP is listed for YXEGTFTSDYSIXLEKEKQXAFVEWLIKGGPSSGASLRHYYNWLTRQRY (Aib at 2, 13, 20; K28 side chain: C20DA-gGlu-gGlu-gGlu-gGlu-gGlu-gGlu-eLys; C-terminal NH2) [Compound 69] ?
2.95

Please give the result for YXEGTFTSDYSIXLEKQAQXAFVEWLIKGGPSSGASLRHYYNWLTXQRY (Aib at 2, 13, 20; hArg 46; DTyr 49; K28 side chain: C20DA-gGlu-gGlu-gGlu-gGlu-gGlu-gGlu-eLys; C-terminal NH2) [Compound 71] too.
0.64
